# Test system: HEK293 clonal cell line overexpressing APOL1 G1
# TEST_METHOD_NOTES: APOL1 G1 HEK293 cell rescue assay (Example B3)
# Type: cell-based
# MEASUREMENT_SETUP: Homo sapiens, HEK293, HEK293 clonal line overexpressing APOL1 G1; geometric mean of at least 2 runs; † = single run; ¥ = concentration at 50% rescue estimated (no sigmoidal curve)
# Procedure: Compounds were also assayed in a HEK293 clonal cell line overexpressing APOL1 G1 by a method similar to that shown in Example B2 above. Unless otherwise specified, EC50 values are reported as the geometric mean of at least 2 assay runs on separate days. Each run represents the average of a technical replicate, where each compound was assayed twice in the same plate. […]
pEC50: −log10 of the molar value.
METRIC: pEC50

compound=CS(=O)(=O)C1(c2ccc(OCCN3CCC4(CC3)C(=O)Nc3ccc(Cl)cc34)cc2)CC1 metric=pEC50 cmp== reported_result=6.95
compound="CN=S(C)(=O)c1ccc(OCCN2CCC3(CC2)C(=O)Nc2ccc(Cl)cc23)cc1 (single isomer, unassigned) [Compound 148]" metric=pEC50 cmp== reported_result=6.55
compound=CS(=O)(=O)NC1CN(C(=O)c2ccc(OCCN3CCC4(CC3)C(=O)Nc3ccc(Cl)cc34)cc2F)C1 metric=pEC50 cmp=< reported_result=5.49
compound="CC(CO)(c1ncc(OCCN2CCC3(CC2)C(=O)Nc2ccc(Cl)cc23)cc1C(F)(F)F)S(C)(=O)=O (centres unmarked)" metric=pEC50 cmp== reported_result=7.17
compound=O=C(c1ccc(OCCN2CCC3(CC2)C(=O)Nc2ccc(Cl)cc23)cc1C(F)(F)F)N1CCS(=O)(=O)CC1 metric=pEC50 cmp== reported_result=6.83
compound="CN=S(C)(=O)c1ccc(OCCN2CCC3(CC2)C(=O)Nc2ccc(Cl)cc23)cc1 (centres unmarked) [Compound 147]" metric=pEC50 cmp== reported_result=6.74
compound=CS(=O)(=O)C1(c2ccc(OCCN3CCC4(CC3)C(=O)Nc3ccc(C#N)cc34)cc2)COC1 metric=pEC50 cmp== reported_result=6.49
compound="CS(=O)(=O)c1ccc(OCCN2CCC3(CC2)C(=O)Nc2ccc(Cl)cc23)cc1C(F)CF (centres unmarked) [Compound 217]" metric=pEC50 cmp== reported_result=6.97
compound=CC(C)(O)c1ncc(OCCN2CCC3(CC2)C(=O)Nc2ccc(C#N)cc23)cc1C(F)(F)F metric=pEC50 cmp== reported_result=7.25
compound=NC1CN(C(=O)c2ccc(OCCN3CCC4(CC3)C(=O)Nc3ccc(Cl)cc34)cc2F)C1 metric=pEC50 cmp== reported_result=6.87
compound=O=C1NCc2cc(OCCN3CCC4(CC3)C(=O)Nc3ccc(Cl)cc34)ccc21 metric=pEC50 cmp== reported_result=6.64
compound=O=C1Nc2ccc(Cl)cc2C12CCN(CCOc1ccc(S(=O)(=O)C(F)F)cc1)CC2 metric=pEC50 cmp== reported_result=7.11
compound=C[C@]1(O)C[C@@H](c2nc3cc(OCCN4CCC5(CC4)C(=O)Nc4ccc(Cl)cc45)cc(C(F)(F)F)c3[nH]2)C1 metric=pEC50 cmp== reported_result=8.06
compound=NC(=O)c1ccc(OCCN2CCC3(CC2)C(=O)Nc2ccc(Cl)cc23)cc1F metric=pEC50 cmp== reported_result=6.60
compound=O=C1Nc2ccc(Cl)cc2C12CCN(CCOc1cnc(C3(O)COC3)nc1)CC2 metric=pEC50 cmp== reported_result=6.70
compound="C[C@]1(O)C[C@@H](n2ncc3cc(OCCN4CCC5(CC4)C(=O)Nc4ccc(Cl)cc45)cnc32)C1 (single isomer, unassigned)" metric=pEC50 cmp== reported_result=7.45
compound=CN1Cc2cc(OCCN3CCC4(CC3)C(=O)Nc3ccc(Cl)cc34)ccc2C1=O metric=pEC50 cmp== reported_result=6.66
compound=O=C1Nc2ccc(Cl)cc2C12CCN(CCOc1ccc3c(cnn3[C@H]3C[C@@H](O)C3)c1)CC2 metric=pEC50 cmp== reported_result=6.80
compound="CC1(O)CC(c2ncc(OCCN3CCC4(CC3)C(=O)Nc3ccc(Cl)cc34)cn2)C1 (single isomer, unassigned) [Compound 392]" metric=pEC50 cmp== reported_result=7.05
compound="O=C1CCc2cc(OCCN3CCC4(CC3)C(=O)Nc3ccc(Cl)cc34)cnc2N1[C@H]1C[C@](O)(C2CC2)C1 (single isomer, unassigned)" metric=pEC50 cmp== reported_result=6.43
compound=CS(=O)(=O)N1CCCc2cc(OCCN3CCC4(CC3)C(=O)Nc3ccc(Cl)cc34)ccc21 metric=pEC50 cmp== reported_result=6.66
compound=N#Cc1ccc2c(c1)C1(CCN(CCOc3ccc4c(c3)CCC(=O)N4CC(F)F)CC1)C(=O)N2 metric=pEC50 cmp== reported_result=6.76
compound=CS(=O)(=O)C1(c2ncc(OCCN3CCC4(CC3)C(=O)Nc3ccc(Cl)cc34)cn2)CC1 metric=pEC50 cmp== reported_result=6.75
compound=CS(=O)(=O)C1(c2ccc(OCCN3CCC4(CC3)C(=O)Nc3ccc(Cl)cc34)cc2)CCOCC1 metric=pEC50 cmp== reported_result=6.91
compound=[2H]C([2H])([2H])N1C(=O)C2(CCN(CCOc3ccc(S(C)(=O)=O)cc3)CC2)c2cc(Cl)ccc21 metric=pEC50 cmp== reported_result=6.67
compound=C[C@]1(O)C[C@@H](n2cnc3nc(OCCN4CCC5(CC4)C(=O)Nc4ccc(Cl)cc45)cc(C(F)(F)F)c32)C1 metric=pEC50 cmp=< reported_result=5.48
compound=CS(=O)(=O)C1(c2ncc(OCCN3CCC4(CC3)C(=O)Nc3ccc(Cl)cc34)cn2)COC1 metric=pEC50 cmp== reported_result=6.64
compound=Cn1c(=O)[nH]c2cc(OCCN3CCC4(CC3)C(=O)Nc3ccc(Cl)cc34)cnc21 metric=pEC50 cmp== reported_result=6.57

# credit: patent US12344610B2
